Cited source: ChEMBL document CHEMBL2169836

molecular target: UniProt:P08684
Sequence (P08684 whole entry): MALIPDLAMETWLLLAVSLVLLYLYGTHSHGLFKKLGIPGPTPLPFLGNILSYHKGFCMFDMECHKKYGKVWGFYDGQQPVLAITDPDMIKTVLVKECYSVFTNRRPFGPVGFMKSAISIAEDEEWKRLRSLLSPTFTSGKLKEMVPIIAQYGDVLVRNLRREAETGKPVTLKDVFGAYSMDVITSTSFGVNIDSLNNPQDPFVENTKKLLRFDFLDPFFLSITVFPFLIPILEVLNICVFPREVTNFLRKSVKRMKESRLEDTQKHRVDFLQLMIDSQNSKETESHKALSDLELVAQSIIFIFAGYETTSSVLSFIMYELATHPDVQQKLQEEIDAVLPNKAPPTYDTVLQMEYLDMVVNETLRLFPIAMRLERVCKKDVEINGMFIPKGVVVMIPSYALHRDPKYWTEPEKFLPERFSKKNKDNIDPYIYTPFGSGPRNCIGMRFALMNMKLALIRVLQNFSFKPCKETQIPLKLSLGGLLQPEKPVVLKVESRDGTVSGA
Note to self: use satisfied only for IC50 readings below 10 µM; a reading exactly at 10 µM still gets not satisfied.

Confirm or reject: IC50 of N#Cc1ccc(C(=O)N2CCC(c3ccc(C(=O)NC(=N)N)cc3C(F)(F)F)CC2)cc1 lies strictly below 10 µM
not satisfied

###

assay: Mean resident time in jugular and femoral vein precannulated Sprague-Dawley rat at 1 mg/kg, iv by LC/MS/MS analysis; assay type: ADME, organism-based; parameters: dose 1 mg/kg, route intravenous; details: in vivo
// label = yes if MRT is not less than 1 h, otherwise no

                                   compound  class
0  Cc1cc(-n2cccc2)c(S(C)(=O)=O)cc1C(=O)NC(=N)N [ENIPORIDE]     no
1  CC(=O)N1CCC(c2ccc(C(=O)NC(=N)N)cc2C(F)(F)F)CC1 [BI 9627]    yes
2  N=C(N)NC(=O)c1ccc(N2CCN(C(=O)c3ccc[nH]3)CC2)c(C(F)(F)F)c1 [SABIPORIDE]    yes
3  CC(=O)N1CCC(c2cc(C)c(C(=O)NC(=N)N)cc2S(C)(=O)=O)CC1     no
4  N#Cc1ccc(C(=O)N2CCC(c3ccc(C(=O)NC(=N)N)cc3C(F)(F)F)CC2)cc1    yes

Consider the record given below.
Decide: is the reported value of MRT for COCC(=O)N1CCC(c2ccc(C(=O)NC(=N)N)cc2C(F)(F)F)CC1 equal to or greater than 1 h?
yes
